Give measured pKa for each item. Keep answers brief.
- TEST: physchem
Give bare numbers.

In the examples that follow, each entry is paired with its recorded pKa.
{"columns": ["MOLECULE", "pKa"],
 "data": [
  ["CC1=NS(=O)(=O)c2cc(Cl)ccc2N1 [DIAZOXIDE]", 8.42],
  ["Cc1nnc(C(=O)NC(C)(C)c2nc(C(=O)NCc3ccc(F)cc3)c(O)c(=O)n2C)o1", 3.97],
  ["Cc1nn(-c2ccc(F)cc2)c(NS(=O)(=O)c2ccc(C(F)(F)F)cc2)c1C(=O)N[C@@H](C)C(C)(C)C", 3.4]
]}

Required: pKa, one value per molecule below.
1. COCCNc1nc(N)c2nc(O)n(Cc3ccccc3)c2n1
2. Nc1nc(O)c(Cl)c(-c2ccccc2)n1
3. CCC(CC)n1nc(C)c(C(=O)N[C@@H](C)C(C)(C)C)c1NS(=O)(=O)c1ccc(C)cc1
4. CCCc1nc(C(C)(C)O)c(C(=O)OCc2oc(=O)oc2C)n1Cc1ccc(-c2ccccc2-c2nnn[nH]2)cc1 [OLMESARTAN MEDOXOMIL]
5. Cc1onc(-c2c(F)cccc2Cl)c1C(=O)N[C@@H]1C(=O)N2[C@@H]1SC(C)(C)[C@@H]2C(=O)O [FLOXACILLIN]

[10, 7.45, 4.6, 4.29, 2.46]

Required: pKa, one value per molecule below.
1. Cc1cc(Cl)ccc1OC1CCN(C[C@H](O)CNC(=O)c2c[nH]c(=O)cc2C(F)(F)F)CC1
2. CN(C)c1ccc(S(=O)(=O)NC(=O)N2CCC(N3CCC(Oc4ccc(Cl)c(Cl)c4)CC3)CC2)cc1
3. [O-][S+](Cc1ccccn1)c1nc2ccccc2[nH]1 (stereo not given) [TIMOPRAZOLE]
4. CN(C)S(=O)(=O)NC(=O)CCCc1c(-c2ccc(F)cc2)[nH]c2ccc(C#N)cc12
5. O=C(NS(=O)(=O)N1CCC(N2CCC(Oc3ccc(Cl)c(Cl)c3)CC2)CC1)c1ccccc1
6. CCC(CC)NC(=O)c1c(C)nn(C(C)C)c1NS(=O)(=O)c1ccc(C)cc1

1. 8.6
2. 6.1
3. 8.8
4. 5.5
5. 4.3
6. 4.7

Required: pKa, one value per molecule below.
1. Cc1ccc2c(c1)c(-c1ccnc3cc(Cl)ccc13)c(C)n2CC(=O)O
2. Cc1ccc2c(c1)c(-c1ccnc3c(C(F)(F)F)cccc13)c(C)n2CC(=O)O
3. O=C(O)c1coc2ccccc2c1=O
4. COCCOc1nc(N)c2[nH]c(=O)n(Cc3ccccc3)c2n1

1. 5
2. 2.4
3. 4
4. 9.5

----------
- TEST: physchem
- CONDITION_NOTES: octan-1-ol/water, pH 7.4, LogD7.4
ENDPOINT: logD
Give bare numbers.

In the examples that follow, each entry is paired with its recorded logD.
{"columns": ["COMPOUND", "logD"],
 "data": [
  ["COc1ccc(C(=O)NCc2cn(-c3cc(C)nc4ccc(OC)cc34)nn2)cc1", 3.5],
  ["O=c1[nH]n(C(c2ccccn2)C2CCCC2)c(=O)c2c(O)c3ccc(Cl)cc3nc12 (stereo not given)", 1.9],
  ["COc1ccc2c(c1)N(C[C@H](C)CN(C)C)c1ccccc1S2", 2.99],
  ["COc1ccc(-c2cc(NC(=O)Cc3ccc4ccccc4c3)[nH]n2)cc1OC", 3.1]
]}

In the following, a different compound is considered.
The measured logD associated with CC(C)C(NC(=O)Cn1c(-c2ccccc2)ccc(NC(=O)Cc2cccc(C(=O)O)c2)c1=O)C(=O)C(F)(F)F (stereo not given) reads 0.68
